# target-desc: GLP-1R of the cAMP assay of Tables 10, 14 and 15 (human, UniProt P43220 24-463, limits assumed)
# procedure-summary: cell-based or functional assay
Non-standard residues stand in square brackets, D forms with d. Groups on a side chain read outwards from the residue. No end group written: not given here. AA10 = not defined here; AA1 = not defined here; AA2 = not defined here; AA6 = not defined here; AA9 = not defined here
So basically, if GLP-1R CAMP Max (%) comes in under 50% it's Satisfied, and if it's 50% or more it's Not satisfied.

Please state whether GLP-1R CAMP Max (%) is below 50% for [AA10][AA9]GT[AA6]TXD[AA2][AA1]-OH (not fully specified (residue 7); printed as AA10-AA9-AA8-AA7-AA6-AA5-AA4-AA3-AA2-AA1-OH; also: AA2 azidobutoxy) [AA10-AA9-AA8-AA7-AA6-AA5-AA4-AA3-AA2-AA1-OH]
Not satisfied

I'd appreciate it if you could check whether [AA10][AA9]GT[AA6]TSD[AA2]([Leu-Gln])-OH (reading uncertain; also: printed as AA10-AA9-AA8-AA7-AA6-AA5-AA4-AA3-(Q-L)AA2-OH) [AA10-AA9-AA8-AA7-AA6-AA5-AA4-AA3-(Q-L)AA2-OH] has GLP-1R CAMP Max (%) smaller than 50%.
Satisfied

Please determine if [AA10][AA9]GT[AA6]TSD[AA2](Leu)[AA1]-OH (reading uncertain; also: also named NH2-PEG8-triazole-P8 acid, printed as M6009 (AA10-AA9-AA8-AA7-AA6-AA5-AA4-AA3-(L)AA2-AA1-OH)) [M6009 (AA10-AA9-AA8-AA7-AA6-AA5-AA4-AA3-(L)AA2-AA1-OH)] is below 50% in terms of GLP-1R CAMP Max (%).
Not satisfied

Does the reported GLP-1R CAMP Max (%) of the following binder sit strictly below 50%? [AA10][AA9]GT[AA6]TSD[AA2]([Leu-Gln-Leu-Leu])-OH (reading uncertain; also: printed as AA10-AA9-AA8-AA7-AA6-AA5-AA4-AA3-(LLQ-L)AA2-OH) [AA10-AA9-AA8-AA7-AA6-AA5-AA4-AA3-(LLQ-L)AA2-OH]
Satisfied

Hello, is GLP-1R CAMP Max (%) of the following binder strictly smaller than 50%? [AA10][AA9]GT[AA6]TSD[AA2](Leu)-OH (reading uncertain; also: printed as M6324 (AA10-AA9-AA8-AA7-AA6-AA5-AA4-AA3-(L)AA2-OH)) [M6324 (AA10-AA9-AA8-AA7-AA6-AA5-AA4-AA3-(L)AA2-OH)]
Not satisfied

Problem: For the binder XXGTXTSDXX-OH (not fully specified (residues 1, 2, 5, 9, 10); printed as Q-M6009 (AA10-AA9-AA8-AA7-AA6-AA5-AA4-AA3-(Q-L)AA2-AA1-OH)) [Q-M6009 (AA10-AA9-AA8-AA7-AA6-AA5-AA4-AA3-(Q-L)AA2-AA1-OH)] , is GLP-1R CAMP Max (%) under 50%?
Not satisfied
